- measured on: T1, T11 (Tn-MUC1) (PAPGSTAPPAHGVT(α-GalNAc)SAPDT(α-GalNAc)RPAPG-OH)
- T1 peptide: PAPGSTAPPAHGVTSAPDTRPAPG
- test: glycopeptide array
Decide using EC50 alone. Strictly below 0.1 mg/L: 1. Equal to or above 0.1 mg/L: -1.

Example entries begin here.
Request: # check: EC50 < 0.1 mg/L for 13 (antibody, V domains shown) VH: QVQLVQSGAEVKKPGASLKVSCKASGYTFTNYYIQWVRQAPGQGLEWMGVINPYDGSTNYAQKFQGRVTLTRDTSTTTVYMELSSLRSDDTAVYYCARDYMIGYVVFDYWGQGTLVTVSS
Response: -1

Request: # check: EC50 < 0.1 mg/L for 150 (antibody, V domains shown) VH: QVQLVQSGAEVKTPGASVKVSCKASGYTFTNYYIQWVRQAPGQALEWMGVINPYDGSTHYAQKFQGRVTLTRDTSTTTVYMDLSSLRSEDAAVYYCARDYMLGYVVFDYWGQGTLVTVSS
Response: -1

Request: # check: EC50 < 0.1 mg/L for 166 (antibody, V domains shown) VH: QVQLVESGAEVKKPGASVKVSCKASGYTFNRYYIHWVRQAPGQGLEWMGVINPSDGSTNYAQKFRGRITMTRDTSTNIVYMELSSLRSEDTAVYFCARDAMGGDSYFDNWGQGTLVTVSS
Response: -1

More entries:
Request: # check: EC50 < 0.1 mg/L for 194 (antibody, V domains shown) VH: QVQLVQSGAEVKKPGTSVKVSCTASGYTFTNYYIQWVRQAPGQGLEWLGVINPYDGSTDYAQKFQGRVTLTRDTSTTTVYMELSSLRSEDTAVYYCARDYMLGYVVFDFWGQGTLVTVSS
Response: -1

Request: # check: EC50 < 0.1 mg/L for 106 (antibody, V domains shown) VH: QVQLVQSGAEMKKPGASVKISCKASGYTFTNYYIQWVRQAPGQGLEWMGVINPYDGSTNYAQRFQGRVTLTRDTSTTTVYMELSSLRSEDTAVYYCARDYMIGYVVFDFWGQGTLVTVSS
Response: 1

Request: # check: EC50 < 0.1 mg/L for 146 (antibody, V domains shown) VH: QVQLVQSGAEVKKPGASVKVSCKASGYAFTSYYIHWVRQAPGQGLEWMGVINPYGGSTNYAQKFQGRVTMTRDTSTRIVYMDLSSLRSEDTAVYYCARDAMEGDSYFDYWGQGTLVTVSS
Response: -1

Request: # check: EC50 < 0.1 mg/L for 33 (antibody, V domains shown) VH: QVQLVQSGAEVKKPGASVRVSCKASGYPFINYYIQWVRQAPGQGLEWMGVINPFDGSTNYAQKFQDRVTVTRDTSTSTVFMDLSSLRSEDTAVYYCARDNMIGYVLLDYWGQGTLVTVSS
Response: 1

Request: # check: EC50 < 0.1 mg/L for 70 (antibody, V domains shown) VH: QVQLVQSGAEVKKPGASVKVSCKASGYAFPNYYIHWVRQAPGQGLEWMGVINPYGGSTNYAQKFQGRVTMTRGTSTSTVYLELSSLRSEDTAVYYCARDAMKGDSFFDYWGQGTLVTVSS
Response: -1
